Origin of the recorded values: patent US9340577B2

- test.target: A31 (A*3101) (Homo sapiens, UniProt P04439, A270S/D185E/E176V/E277Q/F33T/G231S/G80R/H175R/I121M/I218V/I322F/K168Q/L300P/L318F/M331R/P217A/Q94H/R138Q/T323A/T345S/T97I/V358M)
- assay.protocol: biochemical
- Type: binding
No end group written: not given here.
Categorize each record by its IC50 using bottom range = under 0.06 µM, center range = from 0.06 µM up to 1 µM, top range = 1 µM and over

Query block: Could you place VTVKVGGQLR [Peptide 1516.06] in its proper category? Many thanks.
Result block: center range

Query block: Could you place KQMSMSQWIK [Peptide 1587.09] in its proper category? Many thanks.
Result block: bottom range

Query block: Could you place KISEYRHYCY [Peptide 78.0082] in its proper category? Many thanks.
Result block: top range

Query block: Could you place LLQAVRIIK [Peptide 9017.0068] in its proper category? Many thanks.
Result block: center range

Query block: Could you place VTVQYDNDKK [Peptide 88.0216] in its proper category? Many thanks.
Result block: top range

Query block: Could you place SVYGDTLEK [Peptide 78.0277] in its proper category? Many thanks.
Result block: top range

Query block: Could you place SSLARRHMAR [Peptide 9017.0193] in its proper category? Many thanks.
Result block: bottom range

Query block: Could you place GTRQARKNRR [Peptide 9017.0200] in its proper category? Many thanks.
Result block: bottom range

Query block: Could you place VSIEWRLRR [Peptide 9017.0088] in its proper category? Many thanks.
Result block: bottom range

----------
- test.target: A*3002 (Homo sapiens, UniProt P04439, D101N/D140H/D185E/E176R/F33S/G80R/H175R/K168Q/Q94H/R138E/R41S/V100E)
- assay.protocol: biochemical
- Type: binding
No end group written: not given here.
measurement.type: IC50 (nM)
Write the answer as a number in nM, unit excluded.

sequence.text: CTSASNPSPQY [Peptide 9012.0170]
unit.descriptor: nM
IC50: 484
//
sequence.text: TIEKLTNTGLY [Peptide 1589.45]
unit.descriptor: nM
IC50: 220
//
sequence.text: QVDYYGLYY [Peptide 1580.19]
unit.descriptor: nM
IC50: 1150

Query block: Tell me the measured IC50 of LKEYVLDLY [Peptide 78.0250] , please.
Result block: 76

Query block: Tell me the measured IC50 of SMDNPEGRY [Peptide 9012.0122] , please.
Result block: 11

Query block: Tell me the measured IC50 of DSVSSTCRY [Peptide 86.0156] , please.
Result block: 994

Query block: Tell me the measured IC50 of ASDVTACPYNY [Peptide 9012.0176] , please.
Result block: 205

Query block: Tell me the measured IC50 of KSAIVTLTY [Peptide 1580.20] , please.
Result block: 5.7

----------
- test.target: DRB1*1201 (Homo sapiens, UniProt P01903+P01911, A100R/A169T/D57E/D86V/F55L/H45Y/K41T/L162R/M171V/P40S/Q125H/Q178H/Q39Y/Q99D/R42G/S66L/T262R/V114A/V67L/W38E/Y59H/Y61H/Y89S)
- assay.protocol: biochemical
measurement.type: pIC50
Quick note: pIC50 values are minus log10 of concentrations in mol/L.

molecule: CC[C@H](C)[C@H](NC(=O)[C@H](CCCCN)NC(=O)[C@H](C)NC(=O)[C@@H]1CCCN1C(=O)[C@H](CCC(=O)O)NC(=O)[C@H](CO)NC(=O)[C@H](CC(C)C)NC(=O)[C@H](CCCNC(=N)N)NC(=O)[C@H](CC(C)C)NC(=O)[C@H](CC(C)C)NC(=O)[C@H](CCSC)NC(=O)[C@H](CC(C)C)NC(=O)[C@H](CC(=O)O)NC(=O)[C@@H](N)Cc1c[nH]cn1)C(=O)N[C@H](C(=O)O)[C@@H](C)O [Peptide 68.0011]
observed.measurement: 7.08

molecule: CSCC[C@H](NC(=O)CNC(=O)[C@H](CC(C)C)NC(=O)[C@H](CCC(N)=O)NC(=O)[C@@H](NC(=O)[C@H](CC(C)C)NC(=O)[C@H](CCC(N)=O)NC(=O)CNC(=O)[C@@H](N)Cc1ccccc1)[C@@H](C)O)C(=O)N[C@@H](CCC(=O)O)C(=O)N[C@@H](CCC(N)=O)C(=O)N[C@@H](Cc1c[nH]cn1)C(=O)N[C@@H](Cc1ccc(O)cc1)C(=O)N[C@@H](CCC(=O)O)C(=O)N[C@@H](CC(C)C)C(=O)O [Peptide 68.0028]
observed.measurement: 6.19

molecule: CC[C@H](C)[C@H](NC(=O)[C@@H]1CCCN1C(=O)[C@@H](N)CC(N)=O)C(=O)N[C@@H](CC(C)C)C(=O)N[C@@H](CC(C)C)C(=O)N[C@@H](Cc1c[nH]c2ccccc12)C(=O)N[C@@H](CCC(N)=O)C(=O)N1CCC[C@H]1C(=O)N[C@H](C(=O)N1CCC[C@H]1C(=O)N[C@H](C(=O)N[C@@H](Cc1c[nH]cn1)C(=O)N[C@H](C(=O)N[C@H](C(=O)N1CCC[C@H]1C(=O)O)C(C)C)[C@@H](C)O)C(C)C)[C@@H](C)CC [Peptide 68.0036]
observed.measurement: 6.21

molecule: CC[C@H](C)[C@H](NC(=O)[C@H](CS)NC(=O)[C@H](Cc1c[nH]cn1)NC(=O)[C@H](C)N)C(=O)N[C@@H](CCCNC(=N)N)C(=O)N[C@@H](CC(N)=O)C(=O)N[C@@H](CCCCN)C(=O)N[C@@H](CO)C(=O)N[C@H](C(=O)N[C@H](C(=O)N[C@@H](CC(C)C)C(=O)N[C@@H](CC(C)C)C(=O)NCC(=O)N[C@@H](CCCNC(=N)N)C(=O)N[C@@H](Cc1c[nH]cn1)C(=O)O)[C@@H](C)CC)C(C)C [Peptide 68.0066]
observed.measurement: 6.80

molecule: CSCC[C@H](NC(=O)[C@H](CC(C)C)NC(=O)[C@H](CCC(N)=O)NC(=O)[C@H](CC(=O)O)NC(=O)[C@H](CC(N)=O)NC(=O)[C@H](CCSC)NC(=O)[C@H](CCSC)NC(=O)[C@H](CCCNC(=N)N)NC(=O)[C@H](CC(C)C)NC(=O)[C@@H](N)C(C)C)C(=O)N[C@@H](Cc1ccccc1)C(=O)N[C@@H](CC(C)C)C(=O)N[C@@H](CCC(=O)O)C(=O)N[C@@H](CCCNC(=N)N)C(=O)N[C@@H](C)C(=O)O [Peptide 68.0130]
observed.measurement: 7.01

Query block: Tell me the measured pIC50 of CC[C@H](C)[C@H](NC(=O)[C@@H](N)CCC(N)=O)C(=O)N[C@@H](Cc1ccc(O)cc1)C(=O)N[C@H](C(=O)N[C@@H](C)C(=O)N[C@@H](C)C(=O)N[C@@H](Cc1ccccc1)C(=O)N[C@H](C(=O)N[C@H](C(=O)N[C@@H](CCC(N)=O)C(=O)N[C@@H](C)C(=O)N[C@@H](C)C(=O)N[C@@H](C)C(=O)N[C@@H](CCC(=O)O)C(=O)N[C@H](C(=O)O)[C@@H](C)O)C(C)C)[C@@H](C)O)C(C)C [Peptide 68.0135] , please.
Result block: 6.03

Query block: Tell me the measured pIC50 of CC(C)C[C@H](NC(=O)[C@@H](NC(=O)CN)C(C)C)C(=O)N[C@H](C(=O)N[C@@H](Cc1c[nH]cn1)C(=O)N1CCC[C@H]1C(=O)N[C@@H](CCC(N)=O)C(=O)N[C@@H](Cc1c[nH]c2ccccc12)C(=O)N[C@H](C(=O)N[C@@H](CC(C)C)C(=O)N[C@H](C(=O)N[C@@H](C)C(=O)N[C@@H](C)C(=O)N[C@@H](Cc1c[nH]cn1)C(=O)N[C@@H](CS)C(=O)O)[C@@H](C)O)C(C)C)C(C)C [Peptide 68.0063] , please.
Result block: 5.13

Query block: Tell me the measured pIC50 of CC[C@H](C)[C@H](NC(=O)CNC(=O)[C@H](Cc1ccc(O)cc1)NC(=O)[C@H](CC(C)C)NC(=O)[C@H](CO)NC(=O)[C@H](CC(C)C)NC(=O)[C@H](CC(C)C)NC(=O)[C@H](CO)NC(=O)[C@@H](N)CC(C)C)C(=O)N[C@@H](Cc1c[nH]cn1)C(=O)N[C@@H](CCCCN)C(=O)N[C@@H](CCC(N)=O)C(=O)N[C@@H](CCCCN)C(=O)N[C@@H](CCC(=O)O)C(=O)N[C@@H](CCCCN)C(=O)O [Peptide 68.0045] , please.
Result block: 6.19

Query block: Tell me the measured pIC50 of CC[C@H](C)[C@H](NC(=O)[C@H](CCCCN)NC(=O)[C@H](CCSC)NC(=O)[C@H](CC(=O)O)NC(=O)[C@H](CCCNC(=N)N)NC(=O)[C@H](CCC(=O)O)NC(=O)[C@H](CC(C)C)NC(=O)[C@H](CCCCN)NC(=O)[C@H](Cc1ccccc1)NC(=O)[C@@H](N)Cc1ccccc1)C(=O)N[C@@H](CC(N)=O)C(=O)N[C@@H](CS)C(=O)N[C@@H](CO)C(=O)NCC(=O)N[C@@H](CCCCN)C(=O)O [Peptide 68.0168] , please.
Result block: 5.16
